system: Debaryomyces castellii CBS2923 phytase; experiment: Influence of the environment (additives, calcium, buffer molarity) on thermostability of the phytase; assay type: physicochemical; settings: additive 10% in 250 mM acetate buffer pH 4, 1 mM calcium
measured.parameter: activity after 1 h at 66.5° C.
Reply: number alone, nothing else.

Consider the following illustrative entries.
Param readout= activity after 1 h at 66.5° C.; system= Debaryomyces castellii CBS2923 phytase; entry= OCC(O)CO ; returns value. 56

Param readout= activity after 1 h at 66.5° C.; system= Debaryomyces castellii CBS2923 phytase; entry= OC[C@H]1O[C@@H](O[C@H]2[C@H](O)[C@@H](O)C(O)O[C@@H]2CO)[C@H](O)[C@@H](O)[C@H]1O (some centres unmarked) ; returns value. 47

Param readout= activity after 1 h at 66.5° C.; system= Debaryomyces castellii CBS2923 phytase; entry= OC[C@H]1O[C@H](O[C@H]2O[C@H](CO)[C@@H](O)[C@H](O)[C@H]2O)[C@H](O)[C@@H](O)[C@@H]1O ; returns value. 56

Param readout= activity after 1 h at 66.5° C.; system= Debaryomyces castellii CBS2923 phytase; entry= O=C[C@@H](O)[C@H](O)[C@H](O)CO ; returns value. 36

Now for another entry.
Param readout= activity after 1 h at 66.5° C.; system= Debaryomyces castellii CBS2923 phytase; entry= OC[C@H]1O[C@@](CO)(O[C@H]2O[C@H](CO)[C@@H](O)[C@H](O)[C@H]2O)[C@@H](O)[C@@H]1O ; returns value. 57

###

test system: D. castellii phytase; assay: Influence of effectors on phytase activity; type: biochemical, Debaryomyces castellii; conditions: effector 5 mM; phytate control = 100
measured.parameter: % activity (%)
# output: bare number, implied unit %

Consider the following illustrative entries.
Param readout= % activity; system= D. castellii phytase; entry= [Cl-].[Cl-].[Zn+2] [ZnCl2] ; returns value. 57

Param readout= % activity; system= D. castellii phytase; entry= [Cl][Cr][Cl] [CrCl2] ; returns value. 107.6

Further cases:
Param readout= % activity; system= D. castellii phytase; entry= [Cl][Mn][Cl] [MnCl2] ; returns value. 28.8

Param readout= % activity; system= D. castellii phytase; entry= [Cl][Hg][Cl] [HgCl2] ; returns value. 96.2

Param readout= % activity; system= D. castellii phytase; entry= [Cl][Fe]([Cl])[Cl] [FeCl3] ; returns value. 92

Param readout= % activity; system= D. castellii phytase; entry= [Ca+2].[Cl-].[Cl-] [CaCl2] ; returns value. 90

Param readout= % activity; system= D. castellii phytase; entry= [Cl-].[Cl-].[Mg+2] [MgCl2] ; returns value. 68.7

Param readout= % activity; system= D. castellii phytase; entry= [Cl][Cu][Cl] [CuCl2] ; returns value. 66.6

###

system: Debaryomyces castellii CBS2923 phytase; assay: Influence of the environment (additives, calcium, buffer molarity) on thermostability of the phytase; format: physicochemical; settings: additive 10% in 250 mM acetate buffer pH 4, 1 mM calcium
compounds and their reported activity after 1 h at 20° C.
Reply: number alone, nothing else.

What measured activity after 1 h at 20° C. goes with OCC(O)CO [Glycerol, glycerol] ? 96

What measured activity after 1 h at 20° C. goes with O=C[C@@H](O)[C@H](O)[C@H](O)CO [Arabinose, arabinose] ? 90

What measured activity after 1 h at 20° C. goes with OC[C@H]1O[C@@](CO)(O[C@H]2O[C@H](CO)[C@@H](O)[C@H](O)[C@H]2O)[C@@H](O)[C@@H]1O [Sucrose, sucrose] ? 97

What measured activity after 1 h at 20° C. goes with OC[C@H]1O[C@H](O[C@H]2O[C@H](CO)[C@@H](O)[C@H](O)[C@H]2O)[C@H](O)[C@@H](O)[C@@H]1O [Trehalose, trehalose] ? 94

Now for another entry.
What measured activity after 1 h at 20° C. goes with OC[C@H]1O[C@@H](O[C@H]2[C@H](O)[C@@H](O)C(O)O[C@@H]2CO)[C@H](O)[C@@H](O)[C@H]1O (some centres unmarked) [Lactose, lactose] ? 95

###

system: D. castellii phytase; test: Influence of effectors on phytase activity; format: biochemical, Debaryomyces castellii
measured.parameter: % activity (%)
# output: bare number, implied unit %

What measured % activity goes with [Cl-].[Cl-].[Co+2] ? 42.3

What measured % activity goes with O=C(O)CI ? 100

What measured % activity goes with II ? 25.6

Now for another entry.
What measured % activity goes with O=C(O)CN(CCN(CC(=O)O)CC(=O)O)CC(=O)O ? 104.5

###

molecules and their reported % activity
system: D. castellii phytase; assay: Substrate specificity, phosphate release kinetics (Table 6A); assay type: biochemical, Debaryomyces castellii; settings: substrate 4 mM; 250 mM sodium acetate buffer, 1 mM CaCl2, pH 4, 37° C.
Returns: string containing the number followed by the unit.

Consider the following illustrative entries.
What measured % activity goes with Nc1ncnc2c1ncn2[C@@H]1O[C@H](COP(=O)(O)OP(=O)(O)OP(=O)(O)O)[C@@H](O)[C@H]1O [Adenosine 5′-triphosphate] ? 133%

What measured % activity goes with Nc1ncnc2c1ncn2[C@@H]1O[C@H](COP(=O)(O)OP(=O)(O)O)[C@@H](O)[C@H]1O [Adenosine 5′-diphosphate] ? 120%

What measured % activity goes with O=[N+]([O-])c1ccc(OP(=O)(O)O)cc1 [pNPP, p-nitrophenyl phosphate] ? 135%

What measured % activity goes with O=C[C@H](O)[C@@H](O)[C@H](O)[C@H](O)COP(=O)(O)O [Glucose-6-phosphate] ? 82%

What measured % activity goes with O=P(O)(O)OCC(O)CO (stereo in doubt) [L-α-glycerophosphate] ? 78%

Further cases:
What measured % activity goes with C=C(OP(=O)(O)O)C(=O)O [Phospho(enol)pyruvate] ? 130%

What measured % activity goes with Nc1ncnc2c1ncn2[C@@H]1O[C@H](COP(=O)(O)O)[C@@H](O)[C@H]1O [Adenosine 5′-monophosphate] ? 50%

What measured % activity goes with O=C(CO)[C@@H](O)[C@H](O)[C@H](O)COP(=O)(O)O [Fructose-6-phosphate] ? 35%

What measured % activity goes with O=C(O)C(O)COP(=O)(O)O (stereo not drawn) [D(−)3-phosphoglyceric acid] ? 95%

Source: patent US8003360B2
